Target: T1, mouse CADM3 (mouse, UniProt Q99N28 23-396)
T1 construct: Full-length gene expressed transiently on Expi293F cells; also called mouse CADM3/Expi293F cells; Mouse CADM3-expressing cells
T1 sequence: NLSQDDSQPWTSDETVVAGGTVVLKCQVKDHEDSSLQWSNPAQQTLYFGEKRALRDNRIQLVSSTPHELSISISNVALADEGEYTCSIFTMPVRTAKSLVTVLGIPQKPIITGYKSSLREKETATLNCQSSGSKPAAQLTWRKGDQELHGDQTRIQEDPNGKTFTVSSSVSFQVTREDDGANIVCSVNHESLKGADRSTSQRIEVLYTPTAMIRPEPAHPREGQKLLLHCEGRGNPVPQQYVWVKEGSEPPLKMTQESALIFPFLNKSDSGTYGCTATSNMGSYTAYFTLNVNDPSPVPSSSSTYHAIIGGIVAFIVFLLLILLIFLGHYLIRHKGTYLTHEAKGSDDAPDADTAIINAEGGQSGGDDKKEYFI
Assay: flow cytometry, 10 ug/mL, mouse CADM3/Expi293F vs parent Expi293F cells
Procedure: After washing with SB, the cells were suspended in SB, and the fluorescence intensity of each cell was measured using a flow cytometer FACS CANTO II (manufactured by Becton, Dickinson and Company). Note that as a negative control, 10 μg/mL of the anti-AVM antibody was used. The detection results were analyzed, and a mean fluorescence intensity (MFI) was calculated using a geometric mean. […]
readout kind: Mean fluorescence intensity ratio
Note: the reply should be a number with no unit written.

// query Request the reported Mean fluorescence intensity ratio associated with iCADM3_3R1-L11_04 VHH-hG4PE(R409K) (Fc fusion, also called iCADM3-3R1-L11_04 humanized antibody; not shown: Hinge-CH2-CH3 region of the human IgG4 heavy chain constant region (IgG4 variant)) EVQLVESGGGLIQAGGSLRLSCAASGSIVSFNAMGWYRQAPGKQRGLVAVITSGGYTNYADSVKGRFTISRDNSKNTLFLQMNSLRAEDTAVYYCNAEGVYSDYVIMNYWGQGTLVTVSS
// result 26.7

More entries:
// query Request the reported Mean fluorescence intensity ratio associated with iCADM3_3R1-L11_03 VHH-hG4PE(R409K) (Fc fusion, also called iCADM3-3R1-L11_03 humanized antibody; not shown: Hinge-CH2-CH3 region of the human IgG4 heavy chain constant region (IgG4 variant)) EVQLVESGGGLIQPGGSLRLSCAASGSTVSFNAMGWYRQAPGKQRGLVSVITSGGYTNYADSVKGRFTISRDNSKNTVYLQMNSLRAEDTAVYYCNAEGVYSDYVIMNYWGQGTLVTVSS
// result 33.8

// query Request the reported Mean fluorescence intensity ratio associated with iCADM3_3R1-L11_05 VHH-hG4PE(R409K) (Fc fusion, also called iCADM3-3R1-L11_05 humanized antibody; not shown: Hinge-CH2-CH3 region of the human IgG4 heavy chain constant region (IgG4 variant)) EVQLVESGGGLIQPGGSLRLSCAASGSIFSFNAMGWYRQAPGKGRVLVAVITSGGYTNYADSVKGRFTISRDNSKNTVYLQMNSLRAEDTAVYYCNAEGVYSDYVIMNYWGQGTLVTVSS
// result 24.6

// query Request the reported Mean fluorescence intensity ratio associated with iCADM3_3R1-L11_01 VHH-hG4PE(R409K) (Fc fusion, also called iCADM3-3R1-L11_01 humanized antibody; not shown: Hinge-CH2-CH3 region of the human IgG4 heavy chain constant region (IgG4 variant)) EVQLVESGGGLIQPGGSLRLSCAASGSTVSFNAMGWYRQAPGKGLGLVAVITSGGYTNYADSVKGRFTISRDNSKNTLFLQMNSLRAEDTAVYYCNAEGVYSDYVIMNYWGQGTLVTVSS
// result 12.5
